- Assay Protocol: Solubility in phosphate buffered saline
- Assay type: physicochemical
- Experimental Context: aqueous buffer, thermodynamic from solid; 10 mM phosphate buffered saline (0.138 M NaCl, 2.7 mM KCl), pH 7.4; read-out: Solubility (mg/mL) PBS
Assay Metric: solubility

[
  {
    "Compound": "CN[C@H](CC(C)C)C(=O)N[C@H]1C(=O)N[C@@H](CC(N)=O)C(=O)N[C@H]2C(=O)N[C@H]3C(=O)N[C@H](C(=O)N[C@H](C(=O)O)c4cc(O)cc(O)c4-c4cc3ccc4O)[C@H](O[C@H]3C[C@](C)(N)[C@@H](O)[C@H](C)O3)c3ccc(c(Cl)c3)Oc3cc2cc(c3O[C@@H]2O[C@H](CO)[C@@H](O)[C@H](O)[C@H]2O[C@H]2C[C@](C)(NCc3ccc(-c4ccc(Cl)cc4)cc3)[C@@H](O)[C@H](C)O2)Oc2ccc(cc2Cl)[C@H]1O [Oritavancin (5), oritavancin, reference compound]",
    "Assay Metric": "solubility",
    "Reported Measurement": "< 0.1 mg/mL"
  }
]

###

- System: S. aureus ATCC 13709
- Assay Protocol: In vitro antibacterial susceptibility (MIC, broth microdilution)
- Assay type: cell-based
- Experimental Context: CAMHB + 0.002% tween
- Method: Susceptibility of S. aureus strain ATCC13709 to oritavancin (5) and synthesized compounds was determined following the guidelines set by the Clinical and Laboratory Standards Institute (formerly the National Committee for Clinical Laboratory Standards) (M26-A). Compounds were serially diluted two-fold in either DMSO (Oritavancin 5) or in PBS and transferred to cation-adjusted Mueller Hinton broth (CAMHB; Becton Dickinson). […]
Assay Metric: MIC against S. aureus ATCC 13709, CAMHB + 0.002% tween (µg/mL)

[
  {
    "Compound": "CNC(CC(C)C)C(=O)NC1C(=O)NC(CC(N)=O)C(=O)NC2C(=O)NC3C(=O)NC(C(=O)NC(C(=O)OCC(=O)NCCCN)c4cc(O)cc(O)c4-c4cc3ccc4O)C(OC3CC(C)(N)C(O)C(C)O3)c3ccc(c(Cl)c3)Oc3cc2cc(c3OC2OC(CO)C(O)C(O)C2OC2CC(C)(NCc3ccc(-c4ccc(Cl)cc4)cc3)C(O)C(C)O2)Oc2ccc(cc2Cl)C1O (stereo not drawn) [Compound 90b]",
    "Reported Measurement": 0.5
  },
  {
    "Compound": "CNC(CC(C)C)C(=O)NC1C(=O)NC(CC(N)=O)C(=O)NC2C(=O)NC3C(=O)NC(C(=O)NC(C(=O)OCC[N+](C)(C)C)c4cc(O)cc(O)c4-c4cc3ccc4O)C(OC3CC(C)(N)C(O)C(C)O3)c3ccc(c(Cl)c3)Oc3cc2cc(c3OC2OC(CO)C(O)C(O)C2OC2CC(C)(NCc3ccc(-c4ccc(Cl)cc4)cc3)C(O)C(C)O2)Oc2ccc(cc2Cl)C1O (stereo not drawn)",
    "Reported Measurement": 0.25
  },
  {
    "Compound": "CNC(CC(C)C)C(=O)NC1C(=O)NC(CC(N)=O)C(=O)NC2C(=O)NC3C(=O)NC(C(=O)NC(C(=O)SCC[N+](C)(C)C)c4cc(O)cc(O)c4-c4cc3ccc4O)C(OC3CC(C)(N)C(O)C(C)O3)c3ccc(c(Cl)c3)Oc3cc2cc(c3OC2OC(CO)C(O)C(O)C2OC2CC(C)(NCc3ccc(-c4ccc(Cl)cc4)cc3)C(O)C(C)O2)Oc2ccc(cc2Cl)C1O (stereo not drawn)",
    "Reported Measurement": 0.25
  },
  {
    "Compound": "CC(C)CC(C(=O)NC1C(=O)NC(CC(N)=O)C(=O)NC2C(=O)NC3C(=O)NC(C(=O)NC(C(=O)O)c4cc(O)cc(O)c4-c4cc3ccc4O)C(OC3CC(C)(N)C(O)C(C)O3)c3ccc(c(Cl)c3)Oc3cc2cc(c3OC2OC(CO)C(O)C(O)C2OC2CC(C)(NCc3ccc(-c4ccc(Cl)cc4)cc3)C(O)C(C)O2)Oc2ccc(cc2Cl)C1O)N(C)C(=O)OCOC(=O)CCC(=O)O (stereo not drawn)",
    "Reported Measurement": 0.125
  },
  {
    "Compound": "CC(C)CC(C(=O)NC1C(=O)NC(CC(N)=O)C(=O)NC2C(=O)NC3C(=O)NC(C(=O)NC(C(=O)O)c4cc(O)cc(O)c4-c4cc3ccc4O)C(OC3CC(C)(NC(=O)OCOC(=O)C(N)CCCCN)C(O)C(C)O3)c3ccc(c(Cl)c3)Oc3cc2cc(c3OC2OC(CO)C(O)C(O)C2OC2CC(C)(NCc3ccc(-c4ccc(Cl)cc4)cc3)C(O)C(C)O2)Oc2ccc(cc2Cl)C1O)N(C)C(=O)OCOC(=O)C(N)CCCCN (stereo not drawn)",
    "Reported Measurement": 0.25
  },
  {
    "Compound": "CC(C)CC(C(=O)NC1C(=O)NC(CC(N)=O)C(=O)NC2C(=O)NC3C(=O)NC(C(=O)NC(C(=O)O)c4cc(O)cc(O)c4-c4cc3ccc4O)C(OC3CC(C)(N)C(O)C(C)O3)c3ccc(c(Cl)c3)Oc3cc2cc(c3OC2OC(CO)C(O)C(O)C2OC2CC(C)(NCc3ccc(-c4ccc(Cl)cc4)cc3)C(O)C(C)O2)Oc2ccc(cc2Cl)C1O)N(C)C(=O)OCOC(=O)CCC(=O)NC(CCC(=O)O)(CCC(=O)O)CCC(=O)O (stereo not drawn)",
    "Reported Measurement": 1
  }
]
